assay: Cmax in Sprague-Dawley rat at 2 mg/kg, iv measured upto 24 hrs by LC-MS/MS analysis; type: ADME, organism-based; parameters: route intravenous, time <=24; details: Sprague-Dawley, in vivo, read-out: Cmax
readoutLabel: Cmax (ng/mL)

1. C=CC(=O)N1CCC[C@@H](n2nc(-c3ccc(Oc4ccccc4)cc3)c3c(N)n[nH]c(=O)c32)C1: 466

----------
assay: Clearance in BALB/c mouse at 1 mg/kg, iv measured upto 24 hrs by LC-MS/MS analysis; conditions: in vivo
readoutLabel: clearance (mL/min/kg)

1. C=CC(=O)N1CCC[C@@H](n2nc(-c3ccc(Oc4ccccc4)cc3)c3c(N)n[nH]c(=O)c32)C1: 31.3
